Would you mind telling me the reported binding signal of each entry?
- Target or test system: snRNP B2 (Homo sapiens)
- Sequence (P08579 whole entry, the tested form may be a part): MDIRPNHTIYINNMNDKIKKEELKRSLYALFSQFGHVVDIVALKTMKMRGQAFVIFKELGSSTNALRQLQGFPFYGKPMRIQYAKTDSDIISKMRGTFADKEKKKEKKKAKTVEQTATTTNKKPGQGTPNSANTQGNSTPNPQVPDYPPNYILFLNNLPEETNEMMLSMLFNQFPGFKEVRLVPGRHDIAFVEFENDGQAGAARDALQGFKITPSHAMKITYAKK
- Assay notes: protein domain microarray probed with biotinylated miRNA; Domain array: 20 mM Tris-HCl pH 7.4, 200 mM KCl, 0.2 mM EDTA, 0.05% NP40, 2 ug/ul heparin, overnight 4 C. ORF array: PBS pH 7.0 with RNase inhibitor, 100 ng RNA; high values mean tight binding
- Test parameters: ssRNA
Numbers only, in fluorescence intensity.

Below: 2 sequences and their reported binding signal.
- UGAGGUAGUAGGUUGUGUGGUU: 296
- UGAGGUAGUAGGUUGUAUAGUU: 44

I need binding signal for every entry listed below, if you could help.
1. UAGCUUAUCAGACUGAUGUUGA
2. AGAGGUAGUAGGUUGCAUAGUU
3. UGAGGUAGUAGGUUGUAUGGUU

1: 24.4; 2: 147; 3: 184
